# tested_target: T1, GFP-9S library array, motif 4 ND N98I (synthetic construct, N98I)
# T1 chain: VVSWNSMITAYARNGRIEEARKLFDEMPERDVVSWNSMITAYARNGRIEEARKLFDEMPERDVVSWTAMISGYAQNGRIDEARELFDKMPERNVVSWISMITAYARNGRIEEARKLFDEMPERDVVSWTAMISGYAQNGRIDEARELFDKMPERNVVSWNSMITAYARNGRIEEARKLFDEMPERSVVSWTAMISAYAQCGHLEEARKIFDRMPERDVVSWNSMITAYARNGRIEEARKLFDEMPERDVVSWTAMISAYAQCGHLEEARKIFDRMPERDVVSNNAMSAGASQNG
# assay_explanation: high-throughput RNA pulldown from lysate on Ni-NTA beads; HRP: 50 mM Tris pH 8, 150 mM NaCl, 1 mM beta-mercaptoethanol, 50 ug/ml BSA, 3 ug/ml yeast RNA, 0.5% heparin; ITC and FP: Tris pH 8, 200 mM KCl, 5% glycerol; MST: 50 mM Tris pH 8, 200 mM NaCl, 1 mM DTT, BSA, heparin, 0.05% Tween 20
# experimental_setup: tags: N-terminal His-eGFP; label: 5' IRDye 800CW
The following binders are listed with their measured pKd values.
Entry type: numeric. Quantity: pKd, the -log10 of concentration in molar units.

binder: AUUAUACGUGA (ssRNA) [IR-rpoA-U]
measured_number: 7.27

Next up:
Lab note: measured pKd of AUUAAACGUGA (ssRNA) [IR-rpoA-A] was 6.76
